Assay: qHTS for Inhibitors of human tyrosyl-DNA phosphodiesterase 1 (TDP1): qHTS in cells in presence of CPT; note: nearly all actives have a fitted effect of over 55% in size
Settings: chicken DT40 Tdp1-/-;hTDP1 cells + 20 nM CPT, ATP luminescence, 48 h; series mostly up to 46.2 µM
Out of some 420,000 compounds screened, about 50,000 (12%) were called active. Not shown: some 26% with an inconclusive outcome. Calls come from the whole dose curve; as a rule, active = well fitted inhibition curve with a large enough effect; inconclusive = small, poorly fitted or top-dose-only effect; inactive = flat fitted curve, though single readings scatter. The full list was thinned out, with actives kept by preference.
Outcome codes: T = active, F = inactive

molecule=CCN(C(=O)COC(=O)c1c(C)nn(-c2ccccc2)c1Cl)c1c(N)n(Cc2ccccc2)c(=O)[nH]c1=O assigned_label=F
molecule="Cc1ccccc1CNC(=O)C(=O)NCC(c1cccs1)S(=O)(=O)c1cccs1 (stereo not given)" assigned_label=T
molecule=CC(C)(C)N1C(=O)c2c(C(=O)OCc3ccccc3)[nH]c(-c3ccccc3)c2C1=O assigned_label=F
molecule="CC(NC(=O)COc1ccc(-c2ccccc2)cc1)C1CCCO1 (stereo not given)" assigned_label=T
molecule=O=C(COc1ccc(-c2ccccc2)cc1)NN=C1CCCC1 assigned_label=F
molecule="CCc1ccc(C2CC(=O)c3c([nH]c(C(=O)OCc4ccc(C)cc4)c3C)C2)cc1 (stereo not given)" assigned_label=T
molecule="CC(C)C(=O)NCC(c1cccs1)S(=O)(=O)c1ccc(F)cc1 (stereo not given)" assigned_label=F
molecule=CCc1nn(CC(=O)N2CCN(c3cccc(C(F)(F)F)c3)CC2)c(=O)c2cc3occc3n12 assigned_label=F
molecule=CCOC(=O)c1cc(=O)c2ccc(OCc3ccccc3)cc2o1 assigned_label=F
molecule="CCOc1ccc(C2CC(=O)c3c([nH]c(C(=O)OCc4ccccc4)c3C)C2)cc1 (stereo not given)" assigned_label=T

----------
Test: qHTS for Inhibitors of human tyrosyl-DNA phosphodiesterase 1 (TDP1): qHTS in cells in presence of CPT; note: nearly all actives have a fitted effect of over 55% in size; note: potency is the fitted concentration of half-maximal effect
Conditions: chicken DT40 Tdp1-/-;hTDP1 cells + 20 nM CPT, ATP luminescence, 48 h; series mostly up to 46.2 µM
Protocol: Human tyrosyl-DNA phosphodiesterase 1 (TDP1) is a novel repair gene, and we propose to use it as a new target for anticancer drug development. […] For the primary screen, Tdp1-/-;hTDP1 cells will be exposed to small molecules in the presence or absence of CPT, and their growth kinetics will be evaluated after 48 hours by measuring ATP activity. […] The hit compounds will then be evaluated in the presence or absence of CPT using Tdp1-/- cells. […]
Among all 420,000 compounds or so, about 50,000 (12%) were called active. Roughly 26% stayed inconclusive and do not appear here. The sample holds actives, similar compounds and a random draw of the others, so the mix is not that of the screen.
Measurement Name: Potency

compound=O=C(Nc1cccc(F)c1)c1coc(=O)c(Br)c1 value_reported="1.3 µM (active)"
compound=COc1ccc(C(C)=O)cc1CSc1nc2nc(C)cc(C)n2n1 value_reported=inactive
compound=O=C(CCN1C(=O)c2ccccc2C1=O)Nc1cccc(F)c1 value_reported=inactive
compound="COc1ccc(C2Nc3ccccc3C(=O)N2c2ccc(F)cc2)cc1Cn1nnc2ccccc21 (stereo unspecified)" value_reported=inactive
compound=CN1CCN(/N=C/c2ccc(C#N)cc2)CC1 value_reported=inactive
compound=O=C(COc1ccccc1F)Nc1ccc(C(=O)OCc2cc(=O)n3nc(C4CC4)sc3n2)cc1 value_reported=inactive
compound="COc1cccc(CN(C)CC2CCCN(CCc3ccc(Cl)cc3)C2)c1OC (stereo unspecified)" value_reported="16.4 µM (active)"
compound=Cc1cc(C(=O)Nc2c(C)n(C)n(-c3ccccc3)c2=O)cs1 value_reported=inactive
compound="Cc1nc2ccc(C(=O)N(C)CC3CCCN(CCc4ccc(Cl)cc4)C3)cc2[nH]1 (stereo unspecified)" value_reported=inactive
compound=CCN(CC(=O)NCc1cccs1)C(=O)c1cccc(S(=O)(=O)Nc2ccccc2OC)c1 value_reported=inactive
compound=OCCN1CCN(c2nnc(-c3ccccc3)c3ccccc23)CC1 value_reported=inactive
